measured target: HBV polymerase (Hepatitis B virus genotype A2 subtype adw2, UniProt P03159)
Construct: made in house; host or cells: E. coli
Sequence (P03159 whole entry): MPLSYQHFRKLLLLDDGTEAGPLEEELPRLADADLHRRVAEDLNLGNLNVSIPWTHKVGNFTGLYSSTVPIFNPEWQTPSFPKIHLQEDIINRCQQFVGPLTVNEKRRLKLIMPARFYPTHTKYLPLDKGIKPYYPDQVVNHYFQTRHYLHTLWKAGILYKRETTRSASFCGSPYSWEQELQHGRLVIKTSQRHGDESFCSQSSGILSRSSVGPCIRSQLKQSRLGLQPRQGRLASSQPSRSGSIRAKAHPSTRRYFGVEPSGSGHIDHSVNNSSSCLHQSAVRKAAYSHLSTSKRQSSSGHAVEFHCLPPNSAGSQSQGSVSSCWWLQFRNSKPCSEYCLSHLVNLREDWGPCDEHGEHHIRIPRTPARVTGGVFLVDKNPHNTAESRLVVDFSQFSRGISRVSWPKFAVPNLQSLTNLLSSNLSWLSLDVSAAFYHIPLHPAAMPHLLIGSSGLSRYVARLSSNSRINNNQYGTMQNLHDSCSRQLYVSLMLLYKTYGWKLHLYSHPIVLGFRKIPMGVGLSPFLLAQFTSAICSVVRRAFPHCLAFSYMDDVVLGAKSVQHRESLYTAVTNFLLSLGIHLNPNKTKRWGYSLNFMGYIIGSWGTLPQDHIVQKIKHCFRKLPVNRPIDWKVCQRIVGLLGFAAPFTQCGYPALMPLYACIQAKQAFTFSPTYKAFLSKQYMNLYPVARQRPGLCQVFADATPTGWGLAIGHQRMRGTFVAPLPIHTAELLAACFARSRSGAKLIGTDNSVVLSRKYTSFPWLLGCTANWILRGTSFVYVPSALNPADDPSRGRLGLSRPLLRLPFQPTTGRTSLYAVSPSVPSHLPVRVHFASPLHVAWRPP
assay: In vitro reverse transcription activity of HBV polymerase (ELISA-type, DIG/biotin nucleotides)
Assay type: biochemical
measurement context: 0.1 μg/ml test compound; read-out: Inhibition activity on HBV-RT (%)
Experimental: The following in vitro experiment was performed to determine the effect of the compounds of formula 1 on the activity of HBV polymerase during reverse transcription. […] The percentage of reduction in HBV polymerase activities for reverse transcription was calculated using the group without test compound as a control and the results are shown in Table 3.
Quick rule: inhibition at 0.1 µg/mL of at least 60% means Fulfilled, below that means Not fulfilled.

Worked examples follow.
[
  {
    "entry smiles": "CSc1ncc(C(=O)N(C)CCO)c(Nc2ccc3[nH]ncc3c2)n1",
    "measured target": "HBV polymerase (Hepatitis B virus genotype A2 subtype adw2, UniProt P03159)",
    "discrete label": "Not fulfilled"
  },
  {
    "entry smiles": "CSc1ncc(C(=O)N(C)C)c(Nc2ccc3cn[nH]c3c2)n1",
    "measured target": "HBV polymerase (Hepatitis B virus genotype A2 subtype adw2, UniProt P03159)",
    "discrete label": "Not fulfilled"
  },
  {
    "entry smiles": "COC(=O)[C@@H](NC(=O)c1cnc(SC)nc1Nc1ccc2cn[nH]c2c1)[C@@H](C)O",
    "measured target": "HBV polymerase (Hepatitis B virus genotype A2 subtype adw2, UniProt P03159)",
    "discrete label": "Fulfilled"
  },
  {
    "entry smiles": "CSc1ncc(C(=O)N2CCN(CCO)CC2)c(Nc2ccc3cn[nH]c3c2)n1",
    "measured target": "HBV polymerase (Hepatitis B virus genotype A2 subtype adw2, UniProt P03159)",
    "discrete label": "Not fulfilled"
  },
  {
    "entry smiles": "CSc1ncc(C(=O)NCCCn2ccnc2)c(Nc2ccc3cn[nH]c3c2)n1",
    "measured target": "HBV polymerase (Hepatitis B virus genotype A2 subtype adw2, UniProt P03159)",
    "discrete label": "Not fulfilled"
  }
]

Given the entry CSc1ncc(C(=O)NCc2cccnc2)c(Nc2ccc3[nH]ncc3c2)n1 , answer whether its inhibition at 0.1 µg/mL meets or surpasses 60%.
Fulfilled

Answer whether inhibition at 0.1 µg/mL of CC[C@H](CO)NC(=O)c1cnc(SC)nc1Nc1ccc2cn[nH]c2c1 is greater than or equal to 60%.
Not fulfilled

Given the entry CSc1ncc(C(N)=O)c(Nc2ccc3cn[nH]c3c2)n1 , answer whether its inhibition at 0.1 µg/mL meets or surpasses 60%.
Not fulfilled
